target_under_test: human DLL4, full length, on cells (human, UniProt Q9NR61 27-685)
Sequence (Q9NR61 27-685 limits assumed): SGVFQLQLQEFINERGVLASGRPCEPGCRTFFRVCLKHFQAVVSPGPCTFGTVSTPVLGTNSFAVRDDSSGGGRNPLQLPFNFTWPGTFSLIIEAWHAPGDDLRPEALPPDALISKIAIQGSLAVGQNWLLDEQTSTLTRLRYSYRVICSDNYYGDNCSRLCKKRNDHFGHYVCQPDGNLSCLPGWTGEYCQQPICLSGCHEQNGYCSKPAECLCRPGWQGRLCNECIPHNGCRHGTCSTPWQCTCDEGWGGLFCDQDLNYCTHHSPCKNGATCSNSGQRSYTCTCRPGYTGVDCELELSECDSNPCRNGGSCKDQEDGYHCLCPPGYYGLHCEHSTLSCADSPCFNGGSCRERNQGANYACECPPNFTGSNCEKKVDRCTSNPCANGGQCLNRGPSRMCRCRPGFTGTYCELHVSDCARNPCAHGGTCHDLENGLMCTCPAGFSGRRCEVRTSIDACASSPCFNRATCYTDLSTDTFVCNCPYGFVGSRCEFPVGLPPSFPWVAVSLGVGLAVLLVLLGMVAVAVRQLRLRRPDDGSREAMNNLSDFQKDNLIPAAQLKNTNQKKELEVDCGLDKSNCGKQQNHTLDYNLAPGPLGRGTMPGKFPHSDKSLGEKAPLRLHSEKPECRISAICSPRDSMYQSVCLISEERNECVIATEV
method_summary: cell-based or functional assay
parameter: Reporter Assay (EC50, nM)
Numeric only. Scale: nM

Worked examples, 6 binders total:
Fill in: Reporter Assay (EC50, nM) of h1A11.6 (antibody, V domains shown, humanized IgG; also called VH.1a/VL.1a 1A11) VH: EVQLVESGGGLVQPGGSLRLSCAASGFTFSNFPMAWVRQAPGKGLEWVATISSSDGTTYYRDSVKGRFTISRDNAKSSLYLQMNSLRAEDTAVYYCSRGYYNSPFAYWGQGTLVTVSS VL: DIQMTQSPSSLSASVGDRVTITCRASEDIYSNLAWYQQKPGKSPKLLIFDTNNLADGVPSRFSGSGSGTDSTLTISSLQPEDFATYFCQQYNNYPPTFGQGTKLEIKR is ___
1.45

Try this binder too: h1A11.4 (antibody, V domains shown, humanized IgG; also called VH.1/VL.2a 1A11) VH: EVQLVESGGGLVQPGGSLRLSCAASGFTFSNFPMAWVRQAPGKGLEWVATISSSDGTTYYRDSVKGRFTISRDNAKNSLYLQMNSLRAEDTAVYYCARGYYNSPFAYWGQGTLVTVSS VL: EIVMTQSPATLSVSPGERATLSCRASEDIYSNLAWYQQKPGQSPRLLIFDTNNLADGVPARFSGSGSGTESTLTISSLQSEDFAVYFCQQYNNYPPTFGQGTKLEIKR
3.28

Likewise for h1A11.13 (antibody, V domains shown, humanized IgG; also called VH.2a/VL.1 1A11) VH: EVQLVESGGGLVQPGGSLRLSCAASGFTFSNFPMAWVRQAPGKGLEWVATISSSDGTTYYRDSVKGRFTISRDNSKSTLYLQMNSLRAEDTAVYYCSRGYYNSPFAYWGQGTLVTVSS VL: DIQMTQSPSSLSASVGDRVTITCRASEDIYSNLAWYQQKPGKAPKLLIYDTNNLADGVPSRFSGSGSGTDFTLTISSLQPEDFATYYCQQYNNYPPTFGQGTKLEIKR ?
10.4

Next binder: h1A11.10 (antibody, V domains shown, humanized IgG; also called VH.1b/VL.1a 1A11) VH: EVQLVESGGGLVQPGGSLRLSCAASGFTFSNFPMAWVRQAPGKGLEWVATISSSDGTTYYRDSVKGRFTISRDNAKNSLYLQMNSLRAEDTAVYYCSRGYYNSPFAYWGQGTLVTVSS VL: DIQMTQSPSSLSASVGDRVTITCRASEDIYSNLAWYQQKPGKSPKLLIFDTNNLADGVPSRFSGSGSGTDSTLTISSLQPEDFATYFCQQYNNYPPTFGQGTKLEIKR
5.88

For h1A11.2 (antibody, V domains shown, humanized IgG; also called VH.1/VL.1a 1A11) VH: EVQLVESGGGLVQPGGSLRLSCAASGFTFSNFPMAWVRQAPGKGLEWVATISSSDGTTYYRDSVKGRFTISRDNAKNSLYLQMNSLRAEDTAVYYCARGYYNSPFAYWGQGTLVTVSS VL: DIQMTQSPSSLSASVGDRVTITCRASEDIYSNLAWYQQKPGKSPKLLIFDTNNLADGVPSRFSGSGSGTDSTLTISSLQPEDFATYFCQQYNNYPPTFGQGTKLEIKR then?
3.92

Another: 1A11 chimeric antibody (antibody, human IgG1, V domains shown, also called Chimera of 1A11; 1A11 (chimera)) VH: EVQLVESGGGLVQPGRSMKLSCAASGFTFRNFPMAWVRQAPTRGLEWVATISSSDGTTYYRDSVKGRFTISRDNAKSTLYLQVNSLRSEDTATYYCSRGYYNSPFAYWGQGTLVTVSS VL: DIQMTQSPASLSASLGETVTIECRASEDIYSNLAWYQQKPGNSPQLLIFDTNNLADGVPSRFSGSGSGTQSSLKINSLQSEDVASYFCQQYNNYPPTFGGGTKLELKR
5.98

As a next step, examine the binder that follows.
Return reported Reporter Assay (EC50, nM); argument: h1A11.1 (antibody, V domains shown, humanized IgG; also called hu1A11.1; VH.1/VL.1 1A11) VH: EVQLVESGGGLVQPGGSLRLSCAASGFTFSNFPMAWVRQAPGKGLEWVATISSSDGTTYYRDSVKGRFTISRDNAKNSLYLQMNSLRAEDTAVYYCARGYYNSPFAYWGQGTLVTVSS VL: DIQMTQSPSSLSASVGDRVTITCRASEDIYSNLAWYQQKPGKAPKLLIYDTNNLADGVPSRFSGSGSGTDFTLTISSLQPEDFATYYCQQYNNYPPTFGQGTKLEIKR
2.53
